target: T1, recombinant human full-length TDP-43 (TAR DNA-binding protein 43), soluble (human, UniProt Q13148 1-414); assay: SPR, immobilized soluble TDP-43
T1 construct: Used on Luminex beads, coated on ELISA plates, and immobilized or injected in SPR; also called FL TDP-43; TDP-43 protein
T1 sequence (Q13148 whole entry): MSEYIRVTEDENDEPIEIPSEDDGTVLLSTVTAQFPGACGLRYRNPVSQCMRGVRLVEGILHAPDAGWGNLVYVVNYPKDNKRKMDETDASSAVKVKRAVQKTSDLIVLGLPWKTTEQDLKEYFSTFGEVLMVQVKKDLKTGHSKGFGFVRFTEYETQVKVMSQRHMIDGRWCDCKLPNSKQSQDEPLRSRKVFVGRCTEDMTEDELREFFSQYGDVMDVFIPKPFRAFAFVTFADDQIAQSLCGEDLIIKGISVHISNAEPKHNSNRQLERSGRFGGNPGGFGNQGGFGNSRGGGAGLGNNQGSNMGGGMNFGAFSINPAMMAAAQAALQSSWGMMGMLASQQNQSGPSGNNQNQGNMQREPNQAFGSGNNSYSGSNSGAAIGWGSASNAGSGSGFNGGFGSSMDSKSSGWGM
metric: pKd
Conceptually, pKd converts a concentration in mol/L into minus its log10.

For orientation, consider the following solved cases.
ACI-7069-641H1-Ab2 (antibody, mouse IgG2b, V domains shown, Mouse IgG2b, kappa, from hybridoma; also called 641H1E7) VH: QVQLKESGPGLVAPSQSLSITCTVSGFSLTNYGVHWVRQPPGKGLEWLGLMWAGGSTNYNSALMSRLSISKDNSKSQVFLKMNSLQTDDTAMYYCVIYRTGFAYWGQGTLVTVSA VL: DVLMTQTPLSLPVSLGDQASISCRSSQSIVHTIGNTYLEWYLQKPGQSPKLLIYKVSNRFSGVPDRFSGSGSGTDFTLKISRVEAEDLGVYYCFQGSHVPFTFGSGTKLEIK :: 8.17
ACI-7069-646B7-Ab1 (antibody, mouse IgG2b, V domains shown, Mouse IgG2b, kappa, from hybridoma; also called 646B7F7) VH: QVQLKESGPGLVAPSQSLSITCTVSGFSLTNFGVHWVRQPPGKGLEWLGIMWAGGSTNYNSALMSRLSISKDNSKSQVFLKMNSLQTDDTAMYYCVIYKTGFAYWGQGTLVTVSA VL: DVLMTQTPLSLPVSLGDQASISCRSSQSIVHAIGNTYLEWYLQKPGQSPKLLIYKVSNRFSGVPDRFSGSGSGTDFTLKISRVEAEDLGVYYCFQGSHVPFTFGSGTKLEIK :: 8.44

Quick one: pKd of ACI-7069-634H10-Ab2 (antibody, mouse IgG2b, V domains shown, Mouse IgG2b, kappa, from hybridoma; also called 634H10H7) VH: EVQLQQSGAELVKPGASVRLSCTASGFNIKDTYMHWVKQRPEQGLEWIGRIDPANSNTKFDPKFQGKATITSDTSSNTAYLQLSSLTSEDTAVYYCARFYGGSHWYFDVWGAGTTVTVSS VL: DIKMTQSPSSMYASLGERVTITCKASQDIKSYLSWYQHKPWKSPKALIYYATSLADGVPSRFSGSGSGQDYSLTISSLESDDTATYYCLQQGESPYTFGGGTKLEIK ?
7.71

Looking for the measured pKd of ACI-7069-636E5-Ab1 (antibody, mouse IgG2b, V domains shown, Mouse IgG2b, lambda, from hybridoma; also called 636E5B8) VH: EVHLVESGGDLVMPGGSLKLSCAASGFTFSNYGMSWVRQTPDKRLEWVATISSGGKYINYLDSLKGRFTISRDNAKNTLYLQMSSLKSEDTAMYYCAKDYGSGWAWFAYWGQGTLVTVSA VL: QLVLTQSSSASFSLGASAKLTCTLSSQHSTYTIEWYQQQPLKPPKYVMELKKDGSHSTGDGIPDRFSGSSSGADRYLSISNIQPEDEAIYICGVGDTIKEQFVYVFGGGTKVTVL , can you help?
7.36

Please report the recorded pKd for ACI-7071-809D9-Ab2 (antibody, mouse IgG2b, V domains shown, Mouse IgG2b, kappa, from hybridoma; also called 809D9C2) VH: QVQLQQSGAELVRPGVSVKISCKGSGYKFTDYSMHWVKQSHTKSLEWIGVISTYYGDTTYNQKFKGKATITVDKSSSTAYMELARLTSEDSAIYYCATYGNFPASFSYWGQGTLVTVSA VL: DIVMTQAAPSIPVTPGESVSISCRSSKSLLHSNGNTYLYWFLQRPGQSPQLLIYRMSNLASGVPDRFSGSGSGTAFTLRISRVEAEDVGVYYCMQHLEYPFTFGSGTKLEIK .
7.97
